experiment: reduction of polyQ htt aggregates in cells – imaging, exon1htt(103Q)mCFP cells, high-content imaging, primary screen (AID 483); details: exon1htt(103Q)mCFP cell line, aggregate imaging, at 2 µM; stronger effect = higher value;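 further: compound exposure lasted 3 days before fixation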
measurement-label: inhibition of aggregation (%)

COc1ccccc1N1CCN(C(=O)C2CC=CCC2C(=O)O)CC1 (stereo unspecified) :: -7.5
CC(=O)NCc1cccc(CNC(C)=O)n1 :: -29
O=C(c1ccc(S(=O)(=O)N2CCC(c3nc4ccccc4s3)CC2)cc1)N1CCOCC1 :: -25
CC(Sc1nnnn1-c1ccccc1)C(=O)Nc1ccc(Cl)cn1 (stereo unspecified) :: -5.6
CC(C)C(CO)NC(=O)CC(=O)NC(CO)C(C)C (stereo unspecified) :: 4.9
Cc1csc2nc3ccccc3c(=O)n12 :: -14.2
Cc1onc(-c2ccccc2Cl)c1C(=O)Nc1cccc(-c2cn3cccnc3n2)c1 :: 7.8
O=C(CNCCC1=CCCCC1)Nc1ccccc1N1CCCCC1 :: -10.4
CSc1nnc(-c2nnc(SC)n2-c2ccccc2)n1-c1ccccc1 :: -8
CCCCOc1ccc(C(=O)Nc2ccc(N3CCN(C(=O)C(C)C)CC3)cc2)cc1 :: -19.5
Cc1nc(-c2ccc(NC(=O)c3cccs3)cc2)cs1 :: 20.1

Reference for the values: PubChem BioAssay
